# system-under-test: T1, Human CD137 shuffle 4 (amino acids 89-114 replaced by wild boar CD137) (human, amino acids 89-114 from wild boar, UniProt Q07011 24-255)
# T1 construct: also called shuffle construct 4
# T1 chain: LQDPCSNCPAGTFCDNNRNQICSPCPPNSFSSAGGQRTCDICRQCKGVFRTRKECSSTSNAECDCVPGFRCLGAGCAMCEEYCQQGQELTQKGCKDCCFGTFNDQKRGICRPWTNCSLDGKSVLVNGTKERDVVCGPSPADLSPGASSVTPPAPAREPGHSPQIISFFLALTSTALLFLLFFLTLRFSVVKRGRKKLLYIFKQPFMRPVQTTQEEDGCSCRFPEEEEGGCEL
# experimental-details: flow cytometry on transfected HEK293T-17 cells, 1 µg/mL antibody
attribute-measured: binding result

>>> result("CD137 antibody clone 012 (rabbit) (antibody, human IgG1, kappa, V domains shown, also called Clone 12; CD137 clone 012) VH: QSVEESGGRLVTPGTPLTLTCTVSGFSLSDYYMTWVRQAPGKGLEYIGIMSGSGSTYYASWAKGRFTISKTSSTTLELKITSPTTEDTAIYFCARDGDYAGWGYATGAFDPWGPGTLVTVSS VL: AAVLTQTPSPVSAAVGGTVTISCQASQSVVGNSLLSWFQKKPGQPPKLLIYSASSLASGVPSRFKGSGSGTQFTLTISDLESDDAATYYCTGRYNSDTDTFVFGGGTEVVVKR")
"binds"
>>> result("CD137 antibody clone 010 (rabbit) (antibody, human IgG1, kappa, V domains shown, also called Clone 10; CD137 clone 010) VH: QSVEESGGRLVTPGTPLTLTCTVSGFSLSTYAMIWVRQAPGKGLEWIGVVYDNGYISHATWVKGRFTISKTSTTVGLEITSPTTEDTATYFCARSADGSWSTYFNLWGQGTLVTVSS VL: DIVMTQTPASVEAAVGGTVTIKCQASESISNYLAWYQQKPGQPPKLLIYKASTLASGVSSRFKGSGSGTEFTLTISDLESADAATYYCQTNYCCSSSDNGFAFGGGTEVVVKR")
"binds"
>>> result("CD137 antibody clone 006 (rabbit) (antibody, human IgG1, kappa, V domains shown, also called Clone 6; CD137 clone 006) VH: QSVEESGGRLVTPGTPLTLTCTVSGFSLSSYAMSWVRQAPGKGLEWIGIISTSGITYYASWAKGRFTISKTSTMVDLKITSPTTEDTATYFCARLNGFDDYVRYFDFWGLGTLVTVSS VL: AIELTQTPSSVSAAVGGTVTINCQASESIASNLAWYQQKPGQPPKLLIYAASYLASGVPSRFKGSGSGTEYTLTISGVQSADAATYYCQSAFYVSSSDNAFGGGTEVVVKR")
"binds"
>>> result("CD137 antibody clone 002 (rabbit) (antibody, human IgG1, kappa, V domains shown, also called Clone 2; CD137 clone 002) VH: QSVEESGGRLVTPGTPLTLTCTVSGFSLTYYAVTWVRQPPGKGLEWIGVIYDNGATAFATWAKGRFTMSKNSTTVALKVTSPTTEDTATYFCARSANNAWSTYSNLWGQGTLVTVSS VL: DIVMTQTPSSVSAAVGGTVTINCQASEDISSYLSWYQQKLGQPPKLLIYKASTLESGVPSRFKGSGSGTEYTLTISDLESDDAATYYCQSYYSGSISGYGFVFGGGTGVVVKR")
"binds"
>>> result("CD137 antibody clone 009 (rabbit) (antibody, human IgG1, kappa, V domains shown, also called Clone 9; CD137 clone 009) VH: QSLEESGGRLVTPGTPLTLTCTVSGFSLNDYWMSWVRQAPGKGLEWIGYIDVGGSLYYASWAKGRFTISRTSTTVDLKMTSLTTEDTATYFCARGGLTYGFDLWGPGTLVTVSS VL: DIVMTQTPASVSEPVGGTVTINCQASEDISSYLAWYQQKPGQRPKRLIYGASDLASGVPSRFSASGSGTEYALTISDLESADAATYYCHYYATISGLGVAFGGGTEVVVKR")
"binds"
>>> result("CD137 antibody clone 001 (rabbit) (antibody, human IgG1, kappa, V domains shown, also called Clone 1; CD137 clone 001) VH: QSVEESGGRLVTPGTPLTLTCTVSGFSLSSYAVSWVRQAPGKGLEWIGVIWNNGATHYATWAKGRFTISKASTTVDLKVTSPTTEDTATYFCARSANDAWSTYSDLWGQGTLVTVSS VL: DIVMTQTPASVEAAVGGTVTIKCQASQTITNYLSWYQQKPGQPPKLLIYKASTLTSGVSSRFKGSGSGTEFTLTISDLESDDAATYYCQNYYYGSSSGYGFVFGGGTEVVVKR")
"binds"

Here is the next item to consider.
Q. Fill in: binding result of CD137 antibody clone 005 (rabbit) (antibody, human IgG1, kappa, V domains shown, also called Clone 5; CD137 clone 005) VH: QSVEESGGRLVTPGTPLTLTCTASGFTISDFHVTWVRQAPGKGLEWIGTIITSASTTAYATWARGRFTISKSSTTVNLKIVSPTTEDTATYFCARSTYTDTSGYYFDFWGQGTLVTVSS VL: AQVLTQTASPVSAAVGGTVIINCQSSQSIYNGNRLSWYQQKPGQPPKLLIYSASTLASGVSSRFKGSGSGTQFTLAISDVQSDDAATYYCLGSYDCDSADCFAFGGGTEVVVER is ___
A. binds
